# System: diaphorase
# experimental protocol: Formation of formazan dyes: NADH, diaphorase and malate (TABLE 8)
# Assay type: biochemical, Clostridium kluyveri
# condition parameters: NADH, diaphorase and malate; 4 h
Threshold check on Formation of formazan dyes, absorbance, Means 4 h: at or above 3 gives true, strictly below gives false.

input smiles	class assignment
O=[N+]([O-])c1ccc(-[n+]2nc(-c3ccc(S(=O)(=O)[O-])cc3S(=O)(=O)[O-])nn2-c2ccc(I)cc2)cc1.[Na+]	false
COc1cc([N+](=O)[O-])c(S(=O)(=O)[O-])cc1-n1nc(C(=O)Nc2ccccc2)n[n+]1-c1cc(S(=O)(=O)O)c([N+](=O)[O-])cc1OC	false
COc1cc([N+](=O)[O-])ccc1-[n+]1nc(-c2ccc(S(=O)(=O)[O-])cc2S(=O)(=O)[O-])nn1-c1ccc([N+](=O)[O-])cc1.[Na+]	true

Next:
Request: Check this molecule for Formation of formazan dyes, absorbance, Means 4 h at or above 3: COc1cc(-c2ccc(-[n+]3nc(-c4ccc(C(=O)N(CCS(=O)(=O)[O-])CCS(=O)(=O)[O-])cc4)nn3-c3nc4ccccc4s3)c(OC)c2)ccc1-[n+]1nc(-c2ccc(C(=O)N(CCS(=O)(=O)[O-])CCS(=O)(=O)[O-])cc2)nn1-c1nc2ccccc2s1.[Na+].[Na+]
Result: false

These entries and their values trace back to patent US20180320217A1.
